Ref: the MegaScale stability set (Tsuboyama et al. 2023)

B1: HEEH_KT_rd6_0790 (parent)
chain: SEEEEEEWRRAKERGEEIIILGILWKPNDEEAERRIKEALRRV

# Variants of: B1
# procedure-text: folding stability dG (cDNA display proteolysis); higher = more stable
# condition: PBS, room temperature
reported-endpoint: folding stability dG (kcal/mol)
Write it as a number; the unit kcal/mol goes unstated.

Input: Provide one value: measured folding stability dG of D29Q
Output: 1.34

Input: Provide one value: measured folding stability dG of E6Q
Output: 1.72

Input: Provide one value: measured folding stability dG of L40T
Output: 0.781

Input: Provide one value: measured folding stability dG of L24P
Output: 1.39

Input: Provide one value: measured folding stability dG of E2Y
Output: 2.58

Input: Provide one value: measured folding stability dG of L40G
Output: 0.586

Input: Provide one value: measured folding stability dG of R42D
Output: 1.56

Input: Provide one value: measured folding stability dG of E7H
Output: 2.14

Input: Provide one value: measured folding stability dG of E30P
Output: 2.04

Input: Provide one value: measured folding stability dG of E13Y
Output: 1.78

Input: Provide one value: measured folding stability dG of A32Y
Output: 1.07

Input: Provide one value: measured folding stability dG of E6V
Output: 1.64

Input: Provide one value: measured folding stability dG of P27D
Output: 1.35

Input: Provide one value: measured folding stability dG of R34A
Output: 2.22

Input: Provide one value: measured folding stability dG of E7L
Output: 2.65

Input: Provide one value: measured folding stability dG of R10M
Output: 1.86

Input: Provide one value: measured folding stability dG of I20L
Output: 1.35

Input: Provide one value: measured folding stability dG of P27C
Output: 2.1

Input: Provide one value: measured folding stability dG of I23Y
Output: 0.775

Input: Provide one value: measured folding stability dG of R9S
Output: 1.62

Input: Provide one value: measured folding stability dG of I36A
Output: 1.11

Input: Provide one value: measured folding stability dG of I18E
Output: 0.975

Input: Provide one value: measured folding stability dG of E5G
Output: 1.41

Input: Provide one value: measured folding stability dG of A11I
Output: 2.52

Input: Provide one value: measured folding stability dG of D29T
Output: 0.862

Input: Provide one value: measured folding stability dG of R9T
Output: 1.74

Input: Provide one value: measured folding stability dG of E30G
Output: 1.78

Input: Provide one value: measured folding stability dG of E3K
Output: 2.46

Input: Provide one value: measured folding stability dG of E6K
Output: 1.72

Input: Provide one value: measured folding stability dG of G15K
Output: 1.6

Input: Provide one value: measured folding stability dG of E2M
Output: 2.45

Input: Provide one value: measured folding stability dG of I36F
Output: 1.5

Input: Provide one value: measured folding stability dG of V43G
Output: 1.84

Input: Provide one value: measured folding stability dG of E6R
Output: 1.65

Input: Provide one value: measured folding stability dG of K26S
Output: 1.99

Input: Provide one value: measured folding stability dG of A11W
Output: 2.05

Input: Provide one value: measured folding stability dG of E13V
Output: 1.94

Input: Provide one value: measured folding stability dG of A39R
Output: 1.88

Input: Provide one value: measured folding stability dG of E13I
Output: 2.04

Input: Provide one value: measured folding stability dG of E5L
Output: 2.17

Input: Provide one value: measured folding stability dG of R41H
Output: 1.88

Input: Provide one value: measured folding stability dG of S1I
Output: 2.61

Input: Provide one value: measured folding stability dG of L21D
Output: 1.04

Input: Provide one value: measured folding stability dG of L24N
Output: 1.34

Input: Provide one value: measured folding stability dG of R34N
Output: 2

Input: Provide one value: measured folding stability dG of K37A
Output: 1.92
